# target.or.test.system: T1, GRB2 K109R mutant, bacterially expressed and purified (UniProt P62993 1-217, Atto488 label in MST)
# T1 construct: domain: full-length; also called K109RGRB2; K109R GRB2 mutant
# experimental.protocol: MST, 100 nM Atto488-labelled K109R GRB2, peptide titrated
pKd: −log10 of the molar value.
assay.readout: pKd

Recorded pKd for WVNYQDGNLN [MRE11 peptide WVNYQDGNLN] , please?
< 3.70
